Kd for Retinoic acid receptor beta (Homo sapiens, UniProt P10826), merged from several publications.

Hey, Retinoic acid receptor beta (Homo sapiens, UniProt P10826) data for CC1(C)CC(C)(C)c2cc(C(=O)Nc3ccc(C(=O)O)c(F)c3)cc(I)c2O1 : Kd came out at > 1000 nM

Hey, Retinoic acid receptor beta (Homo sapiens, UniProt P10826) data for CCC(CC)=C1CCC(C)(C)c2ccc(/C=C/c3ccc(C(=O)O)cc3)cc21 : Kd came out at 3 nM

Hey, Retinoic acid receptor beta (Homo sapiens, UniProt P10826) data for CC(/C=C/CC1(c2cc(C(C)(C)C)cc(C(C)(C)C)c2)CC1)=C\C(=O)O : Kd came out at > 5000 nM

Hey, Retinoic acid receptor beta (Homo sapiens, UniProt P10826) data for C=C(c1ccc(C)cc1)c1cc(C#Cc2ccc(C(=O)O)cc2)ccc1OC : Kd came out at 193 nM

Hey, Retinoic acid receptor beta (Homo sapiens, UniProt P10826) data for CCOc1c(\C(C)=C(F)/C=C/C(C)=C/C(=O)O)cc2c(c1Br)C(C)(C)CC=C2C(C)(C)C : Kd came out at 517 nM

Hey, Retinoic acid receptor beta (Homo sapiens, UniProt P10826) data for C=C(c1cccc(C)c1)c1cc(C#Cc2ccc(C(=O)O)cc2)ccc1OC(C)C : Kd came out at 488 nM

Hey, Retinoic acid receptor beta (Homo sapiens, UniProt P10826) data for CCO/N=C1\CCC(C)(C)c2ccc(/C=C/c3ccc(C(=O)O)cc3)cc21 : Kd came out at 36 nM

* * *

pKd for Retinoic acid receptor beta (Homo sapiens, UniProt P10826), merged from several publications.
pKd: −log10 of the molar value.
Assign 1 to entries whose pKd meets or exceeds 7; assign -1 to the rest.

Q. Kindly determine if pKd recorded for CC1(C)CC(C)(C)c2cc(C(=O)Nc3ccc(C(=O)O)c(F)c3)cc(N=[N+]=[N-])c2O1 is above or exactly 7.
A. -1

Q. Kindly determine if pKd recorded for CC1(C)CCC(C)(C)c2c1cc(C(=O)Nc1cc(F)c(C(=O)O)c(F)c1)c(O)c2Cl is above or exactly 7.
A. -1

Q. Kindly determine if pKd recorded for CC12CCC(C1)C1(C)Oc3ccc(CCOc4ccc(C(=O)O)c(O)c4)cc3C21C (stereo not shown) is above or exactly 7.
A. -1

Q. Kindly determine if pKd recorded for Cc1ccc(C2=C(/C=C/C#Cc3ccc(C(=O)O)cc3)C(C)(C)CCC2)cc1 is above or exactly 7.
A. 1

Q. Kindly determine if pKd recorded for CN(C1CC1)C1CCC(C)(C)c2cc(C#Cc3ccc(/C=C/C(=O)O)cc3)cc(C3CC3)c21 (stereo not shown) is above or exactly 7.
A. -1

Q. Kindly determine if pKd recorded for CC(C)(C)c1ccc(C#Cc2ccc(C(=O)O)c(F)c2)cc1Oc1ccc(N=[N+]=[N-])cc1 is above or exactly 7.
A. 1

Q. Kindly determine if pKd recorded for CCc1ccc(Oc2cc(C#Cc3ccc(C(=O)O)c(F)c3)ccc2C(C)(C)C)cc1 is above or exactly 7.
A. 1

Q. Kindly determine if pKd recorded for CCOc1c(\C(C)=C(F)/C=C/C(C)=C/C(=O)O)cc2c(c1Cl)C(C)(C)CC=C2C(C)C is above or exactly 7.
A. -1

Q. Kindly determine if pKd recorded for C=C(c1ccc(C)cc1)c1cc(C#Cc2ccc(C(=O)O)cc2)ccc1O is above or exactly 7.
A. -1

Q. Kindly determine if pKd recorded for Cc1cc2c(cc1Sc1ccc(C(=O)O)cc1)C(C)(C)CCC2(C)C is above or exactly 7.
A. -1

Q. Kindly determine if pKd recorded for C#Cc1cc(C(=O)Oc2ccc(CC(=O)OCC)cc2)cc2c1OC(C)(C)CC2(C)C is above or exactly 7.
A. -1

Q. Kindly determine if pKd recorded for CC1(C)CCC(C)(C)c2cc(C(=O)Nc3cc(F)c(C(=O)O)c(F)c3)ccc21 is above or exactly 7.
A. -1

Q. Kindly determine if pKd recorded for CCOc1c(\C(C)=C(F)/C=C/C(C)=C/C(=O)O)cc2c(c1Br)C(C)(C)CC=C2C(C)C is above or exactly 7.
A. -1

Q. Kindly determine if pKd recorded for CC1(C)CC=C(Sc2ccccc2)c2cc(/C=C/c3ccc(C(=O)O)cc3)ccc21 is above or exactly 7.
A. -1

Q. Kindly determine if pKd recorded for CC1(C)CCCC(c2ccc(C(C)(C)C)cc2)=C1/C=C/C#Cc1ccc(C(=O)O)cc1 is above or exactly 7.
A. 1
